molecular target: human tissue factor (TF), membrane-bound on cells (human, UniProt P13726 33-295); assay: cell-based or functional assay
Recorded IC50, inhibition of FVIIa induced IL-8 release (MDA-MB-231), one value per entry.
endpoint_label: IC50, inhibition of FVIIa induced IL-8 release (MDA-MB-231) (nM)

- binder: "anti-TF HuMab 025 (antibody, V domains shown, Human monoclonal antibody from HuMab mice) VH: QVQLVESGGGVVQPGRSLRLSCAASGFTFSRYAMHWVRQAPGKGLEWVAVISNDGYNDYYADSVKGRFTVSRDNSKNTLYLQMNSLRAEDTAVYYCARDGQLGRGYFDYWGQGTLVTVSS VL: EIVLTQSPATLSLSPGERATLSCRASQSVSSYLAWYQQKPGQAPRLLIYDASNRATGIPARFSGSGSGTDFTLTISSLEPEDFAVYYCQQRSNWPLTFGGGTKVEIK"
  unit_abbrev: "nM"
  comparator: "="
  readout_value: 23.1
- binder: "anti-TF HuMab 044 (antibody, V domains shown, Human monoclonal antibody from HuMab mice) VH: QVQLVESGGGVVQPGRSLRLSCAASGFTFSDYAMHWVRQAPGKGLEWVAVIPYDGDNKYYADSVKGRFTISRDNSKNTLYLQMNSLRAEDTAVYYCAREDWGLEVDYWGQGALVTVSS VL: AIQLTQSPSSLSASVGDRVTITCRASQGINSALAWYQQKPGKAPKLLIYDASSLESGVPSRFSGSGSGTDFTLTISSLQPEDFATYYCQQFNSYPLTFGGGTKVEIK"
  unit_abbrev: "nM"
  comparator: "="
  readout_value: 74.6
- binder: "anti-TF HuMab 109 (antibody, V domains shown, Human monoclonal antibody from HuMab mice) VH: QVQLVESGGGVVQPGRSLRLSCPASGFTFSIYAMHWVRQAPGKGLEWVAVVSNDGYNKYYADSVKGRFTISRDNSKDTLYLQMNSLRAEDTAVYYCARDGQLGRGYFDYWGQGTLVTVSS VL: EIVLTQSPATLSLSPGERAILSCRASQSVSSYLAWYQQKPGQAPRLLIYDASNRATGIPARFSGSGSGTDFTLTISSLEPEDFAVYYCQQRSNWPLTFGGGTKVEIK"
  unit_abbrev: "nM"
  comparator: "="
  readout_value: 13.6
- binder: "anti-TF HuMab 003 (antibody, V domains shown, Human monoclonal antibody from HuMab mice; also called HuMab-TF-003) VH: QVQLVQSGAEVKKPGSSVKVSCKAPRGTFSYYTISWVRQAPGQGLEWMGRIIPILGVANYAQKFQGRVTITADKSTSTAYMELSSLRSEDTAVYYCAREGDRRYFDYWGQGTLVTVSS VL: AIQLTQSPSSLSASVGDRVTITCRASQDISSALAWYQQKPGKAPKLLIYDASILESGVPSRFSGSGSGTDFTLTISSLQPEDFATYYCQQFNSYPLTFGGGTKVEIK"
  unit_abbrev: "nM"
  comparator: "="
  readout_value: 23.7
- binder: "anti-TF HuMab 101 (antibody, V domains shown, Human monoclonal antibody from HuMab mice) VH: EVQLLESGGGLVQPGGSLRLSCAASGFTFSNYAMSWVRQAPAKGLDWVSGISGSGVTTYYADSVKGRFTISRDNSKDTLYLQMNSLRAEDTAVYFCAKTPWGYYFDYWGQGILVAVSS VL: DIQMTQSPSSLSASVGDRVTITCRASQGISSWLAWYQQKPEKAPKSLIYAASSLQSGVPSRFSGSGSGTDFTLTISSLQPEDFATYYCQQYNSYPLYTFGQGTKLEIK"
  unit_abbrev: "nM"
  comparator: "="
  readout_value: 22.7
- binder: "anti-TF HuMab 098 (antibody, V domains shown, Human monoclonal antibody from HuMab mice; also called HuMab-TF-098; HuMab-TF-98) VH: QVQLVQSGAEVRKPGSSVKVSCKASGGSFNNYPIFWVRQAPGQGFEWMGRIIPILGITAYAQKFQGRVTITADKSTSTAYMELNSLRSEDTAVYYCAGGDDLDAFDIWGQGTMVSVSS VL: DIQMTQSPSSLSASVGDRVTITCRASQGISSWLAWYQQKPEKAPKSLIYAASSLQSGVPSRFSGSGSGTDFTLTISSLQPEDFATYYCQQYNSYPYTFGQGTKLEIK"
  unit_abbrev: "nM"
  comparator: "="
  readout_value: 9.3
- binder: "anti-TF HuMab 111 (antibody, V domains shown, Human monoclonal antibody from HuMab mice) VH: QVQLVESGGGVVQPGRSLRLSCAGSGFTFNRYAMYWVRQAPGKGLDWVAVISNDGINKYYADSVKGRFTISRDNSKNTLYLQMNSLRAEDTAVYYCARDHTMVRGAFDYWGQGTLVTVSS VL: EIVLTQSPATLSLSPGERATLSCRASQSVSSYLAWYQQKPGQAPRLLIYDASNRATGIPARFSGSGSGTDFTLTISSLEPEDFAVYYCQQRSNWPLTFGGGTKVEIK"
  unit_abbrev: "nM"
  comparator: ">"
  readout_value: 200
